All figures here come from ChEMBL document CHEMBL4765299.

Below: a set of entries, each annotated with reported IC50.
Experiment: against A against n against t against i against p against r against o against l against i against f against e against r against a against t against i against v against e against a against c against t against i against v against i against t against y against a against g against a against i against n against s against t against h against u against m against a against n against H against C against T against - against 8 against c against e against l against l against s against a against s against s against e against s against s against e against d against a against s against r against e against d against u against c against t against i against o against n against i against n against c against e against l against l against v against i against a against b against i against l against i against t against y against m against e against a against s against u against r against e against d against a against f against t against e against r against 7 against 2 against h against r against s against b against y against M against T against T against a against s against s against a against y against
Type: functional, tissue-based, Homo sapiens
Details: hct-8
Please respond with the number in nM and leave the unit unwritten.

C=C(c1ccncc1)c1ccc(OC)c(O)c1 | 222
C=C(c1cc(Cl)nc(NC)c1)c1ccc(OC)c(O)c1 | 21
C=C(c1cc(OC)nc(OC)c1)c1ccc2c(ccn2C)c1 | 288

Please indicate IC50 recorded for C=C(c1cc(Cl)nc(N(C)C)c1)c1ccc(OC)c(O)c1
29

Please indicate IC50 recorded for C=C(c1cc(C)nc(C)c1)c1ccc2c(ccn2C)c1
31

Please supply the value of reported IC50 for the item C=C(c1cc(C)nc(C)c1)c1ccc(OC)c(O)c1
31

Give reported IC50 value for C=C(c1cc(OC)nc(OC)c1)c1ccc(OC)c(O)c1
86

Given the compound C=C(c1ccc(OC)c(O)c1)c1cc(OC)c(OC)c(OC)c1 , write its reported IC50.
10

Kindly indicate its recorded IC50. Item: C=C(c1ccnc(C)c1)c1ccc(OC)c(O)c1
32

----------
Experiment: against A against n against t against i against p against r against o against l against i against f against e against r against a against t against i against v against e against a against c against t against i against v against i against t against y against a against g against a against i against n against s against t against h against u against m against a against n against K against 5 against 6 against 2 against c against e against l against l against s against a against s against s against e against s against s against e against d against a against s against r against e against d against u against c against t against i against o against n against i against n against c against e against l against l against v against i against a against b against i against l against i against t against y against m against e against a against s against u against r against e against d against a against f against t against e against r against 7 against 2 against h against r against s against b against y against M against T against T against a against s against s against a against y against
Format: functional, tissue-based, Homo sapiens
Settings: k562
reported.endpoint: pIC50
In textbook form, pIC50 equals minus log to base ten of the concentration in mol/L.

C=C(c1cc(OC)nc(OC)c1)c1ccc2c(ccn2C)c1 | 6.74
C=C(c1cc(C)nc(C)c1)c1ccc2c(ccn2C)c1 | 7.68
C=C(c1ccncc1)c1ccc(OC)c(O)c1 | 6.82
C=C(c1cc(C)nc(C)c1)c1ccc(OC)c(O)c1 | 7.92
C=C(c1cc(Cl)nc(NC)c1)c1ccc(OC)c(O)c1 | 8.00

Kindly consider the entry below.
Indicate its recorded pIC50; the molecule in question is C=C(c1ccc(OC)c(O)c1)c1cc(OC)c(OC)c(OC)c1
8.22

----------
Assay: Inhibition of porcine brain tubulin polymerization assessed as inhibition of microtubule assembly by measuring decrease in absorbance measured for 60 mins by fluorescence based analysis
Assay type: tissue-based, Sus scrofa
Below: a set of entries, each annotated with reported IC50.
The reply should be a number in nM, with the unit left off.

Supply reported IC50 belonging to this molecule: C=C(c1cc(Cl)nc(NC)c1)c1ccc(OC)c(O)c1
3150

Read off the recorded IC50 for C=C(c1ccc(OC)c(O)c1)c1cc(OC)c(OC)c(OC)c1
2370

----------
Test system: HepG2
Assay: Antiproliferative against human HepG2 cells assessed as reduction in cell viability measured after 72 hrs by MTT assay
Format: functional, cell-based
Conditions: HepG2, 72 h
Recorded pIC50 by entry
Units for pIC50: none; it is -log10 of a concentration expressed in mol/L.

Known results for compounds:
C=C(c1cc(OC)nc(OC)c1)c1ccc(OC)c(O)c1 | 7.11
C=C(c1cc(C)nc(C)c1)c1ccc(OC)c(O)c1 | 7.57
C=C(c1cc(C)nc(C)c1)c1ccc2c(ccn2C)c1 | 7.52
C=C(c1cc(OC)nc(OC)c1)c1ccc2c(ccn2C)c1 | 6.52
C=C(c1ccnc(C)c1)c1ccc(OC)c(O)c1 | 7.51

Next item in the queue.
Provide the reported pIC50 (system: HepG2) for C=C(c1ccncc1)c1ccc(OC)c(O)c1
6.58

----------
Test: against A against n against t against i against p against r against o against l against i against f against e against r against a against t against i against v against e against a against c against t against i against v against i against t against y against a against g against a against i against n against s against t against h against u against m against a against n against K against 5 against 6 against 2 against c against e against l against l against s against a against s against s against e against s against s against e against d against a against s against r against e against d against u against c against t against i against o against n against i against n against c against e against l against l against v against i against a against b against i against l against i against t against y against m against e against a against s against u against r against e against d against a against f against t against e against r against 7 against 2 against h against r against s against b against y against M against T against T against a against s against s against a against y against
Assay type: functional, tissue-based, Homo sapiens
Details: k562
As shown below, each of these compounds has a reported IC50 value.

C=C(c1cc(OC)nc(OC)c1)c1cn(C)c2cc(OC)ccc12 | > 1000 nM
C=C(c1cc(OC)nc(OC)c1)c1ccc(OC)c(OC)c1 | > 1000 nM
C=C(c1cc(OC)nc(OC)c1)c1ccc2[nH]ccc2c1 | > 1000 nM
C=C(c1cc(OC)nc(OC)c1)c1c[nH]c2ccccc12 | > 1000 nM
C=C(c1cc(OC)nc(OC)c1)c1ccc2c(c1)OCO2 | > 1000 nM

Read off the recorded IC50 for C=C(c1cc(N2CCCC2)nc(N2CCCC2)c1)c1ccc(OC)c(O)c1
> 1000 nM

State its IC50: C=C(c1cc(OC)nc(OC)c1)c1cccc2[nH]ccc12
> 1000 nM

Return IC50 (reported value) for this compound: C=C(c1cc(N2CCOCC2)nc(N2CCOCC2)c1)c1ccc(OC)c(O)c1
> 1000 nM

Write down IC50 measured for item C=C(c1cc(OC)nc(OC)c1)c1cc(OC)c(OC)c(OC)c1
> 1000 nM

Return value of IC50 for input C=C(c1cc(OC)nc(OC)c1)c1ccc(OC)c(O)c1 , no commentary.
44 nM

Give the reported IC50 for this compound. C=C(c1cc(OC)nc(OC)c1)c1cn(C)c2ccccc12
> 1000 nM

Return reported IC50. Input compound: C=C(c1cc(Cl)nc(N(C)C)c1)c1ccc(OC)c(O)c1
16 nM

// Input: C=C(c1cc(Cl)nc(N2CCNCC2)c1)c1ccc(OC)c(O)c1 . Output its IC50 only.
> 1000 nM

Kindly indicate its recorded IC50. Item: C=C(c1cc(OC)nc(OC)c1)c1cccc2c1ccn2C
> 1000 nM

Output measured IC50 for this item: C=C(c1ccnc(C)c1)c1ccc(OC)c(O)c1
24 nM

Look up and report measured IC50 for this entry: C=C(c1cc(OC)nc(OC)c1)c1c[nH]c2cc(OC)ccc12
> 1000 nM

----------
Test system: HepG2
Experiment: Antiproliferative against human HepG2 cells assessed as reduction in cell viability measured after 72 hrs by MTT assay
Assay type: functional, cell-based
Conditions: HepG2, 72 h
reported.endpoint: pIC50
The scale used: pIC50 is minus the common logarithm of the concentration in molar units.

Guide cases for pIC50, answers given:
C=C(c1cc(Cl)nc(NC)c1)c1ccc(OC)c(O)c1 | 7.72
C=C(c1cc(Cl)nc(N(C)C)c1)c1ccc(OC)c(O)c1 | 7.57

Annotate the molecule C=C(c1ccc(OC)c(O)c1)c1cc(OC)c(OC)c(OC)c1 with its measured pIC50.
8.00
